# target or system: Voltage-gated inwardly rectifying potassium channel KCNH2 (Homo sapiens, UniProt Q12809)
# Sequence (Q12809 whole entry): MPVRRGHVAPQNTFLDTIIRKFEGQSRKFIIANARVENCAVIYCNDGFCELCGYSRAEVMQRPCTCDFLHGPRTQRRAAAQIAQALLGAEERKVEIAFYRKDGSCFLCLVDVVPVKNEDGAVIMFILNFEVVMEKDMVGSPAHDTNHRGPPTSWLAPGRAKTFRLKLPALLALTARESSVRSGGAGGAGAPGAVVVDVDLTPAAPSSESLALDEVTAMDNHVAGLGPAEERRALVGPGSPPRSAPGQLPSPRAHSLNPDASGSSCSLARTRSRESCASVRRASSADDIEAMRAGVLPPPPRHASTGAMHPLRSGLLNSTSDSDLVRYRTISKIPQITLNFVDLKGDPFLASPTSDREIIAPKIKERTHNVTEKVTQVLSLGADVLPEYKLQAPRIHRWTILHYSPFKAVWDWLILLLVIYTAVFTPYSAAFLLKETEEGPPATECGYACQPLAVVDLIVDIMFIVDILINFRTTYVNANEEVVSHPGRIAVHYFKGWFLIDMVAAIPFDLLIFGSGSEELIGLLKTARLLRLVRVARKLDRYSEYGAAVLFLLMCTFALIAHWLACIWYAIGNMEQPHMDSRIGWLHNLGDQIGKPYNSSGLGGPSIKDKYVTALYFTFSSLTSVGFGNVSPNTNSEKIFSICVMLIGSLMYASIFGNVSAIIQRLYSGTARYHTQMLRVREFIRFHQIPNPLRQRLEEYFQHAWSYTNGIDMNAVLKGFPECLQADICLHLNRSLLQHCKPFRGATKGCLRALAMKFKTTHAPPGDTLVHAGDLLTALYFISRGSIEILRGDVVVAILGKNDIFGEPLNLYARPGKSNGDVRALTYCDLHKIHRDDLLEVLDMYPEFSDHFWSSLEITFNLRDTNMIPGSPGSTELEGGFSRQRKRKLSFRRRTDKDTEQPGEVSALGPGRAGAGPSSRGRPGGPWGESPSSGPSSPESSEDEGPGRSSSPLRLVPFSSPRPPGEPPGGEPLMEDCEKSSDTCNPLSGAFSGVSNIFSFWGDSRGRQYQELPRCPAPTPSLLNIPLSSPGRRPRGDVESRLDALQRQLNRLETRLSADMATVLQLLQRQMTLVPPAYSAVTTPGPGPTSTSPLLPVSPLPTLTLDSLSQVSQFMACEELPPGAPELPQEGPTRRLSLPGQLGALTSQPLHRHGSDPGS
# assay remarks: Antagonist activity at human ERG
measurement name: pEC50
Interpret pEC50 as the negative base-10 log of the concentration measured in mol/L.

Looking for the measured pEC50 of O=C(Cc1ccc(Cl)c(Cl)c1)N1CCN(c2ccc3nncn3n2)CC1 , can you help? 5.11

---

# target or system: CYP2C19 (Homo sapiens)
# Sequence (P33261 whole entry): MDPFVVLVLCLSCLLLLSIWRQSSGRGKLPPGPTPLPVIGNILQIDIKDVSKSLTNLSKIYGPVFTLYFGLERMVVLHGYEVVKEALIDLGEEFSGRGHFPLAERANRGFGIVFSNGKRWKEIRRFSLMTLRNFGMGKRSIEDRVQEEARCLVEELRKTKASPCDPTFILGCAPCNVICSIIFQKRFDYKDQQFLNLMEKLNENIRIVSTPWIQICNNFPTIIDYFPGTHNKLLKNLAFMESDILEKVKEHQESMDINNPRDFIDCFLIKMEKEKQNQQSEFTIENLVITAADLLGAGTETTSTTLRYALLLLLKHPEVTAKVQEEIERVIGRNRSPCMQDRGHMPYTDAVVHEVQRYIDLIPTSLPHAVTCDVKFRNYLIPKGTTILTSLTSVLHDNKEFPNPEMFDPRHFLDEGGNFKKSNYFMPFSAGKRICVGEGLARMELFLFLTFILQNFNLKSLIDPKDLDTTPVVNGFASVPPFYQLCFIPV
# assay remarks: Inhibition of CYP2C19 (unknown origin) at 10 uM relative to control
# Assay type: ADME
measurement name: inhibition at 10 µM (%)
Response body: numeric value in %, unit text excluded.

I have this compound here, O=C(Cc1ccc(Cl)c(Cl)c1)N1CCN(c2ccc3nncn3n2)CC1 , and I need its recorded inhibition at 10 µM. 44
